measuredOn: PI3Kγ (Homo sapiens, UniProt P48736)
Sequence (P48736 whole entry, species assumed): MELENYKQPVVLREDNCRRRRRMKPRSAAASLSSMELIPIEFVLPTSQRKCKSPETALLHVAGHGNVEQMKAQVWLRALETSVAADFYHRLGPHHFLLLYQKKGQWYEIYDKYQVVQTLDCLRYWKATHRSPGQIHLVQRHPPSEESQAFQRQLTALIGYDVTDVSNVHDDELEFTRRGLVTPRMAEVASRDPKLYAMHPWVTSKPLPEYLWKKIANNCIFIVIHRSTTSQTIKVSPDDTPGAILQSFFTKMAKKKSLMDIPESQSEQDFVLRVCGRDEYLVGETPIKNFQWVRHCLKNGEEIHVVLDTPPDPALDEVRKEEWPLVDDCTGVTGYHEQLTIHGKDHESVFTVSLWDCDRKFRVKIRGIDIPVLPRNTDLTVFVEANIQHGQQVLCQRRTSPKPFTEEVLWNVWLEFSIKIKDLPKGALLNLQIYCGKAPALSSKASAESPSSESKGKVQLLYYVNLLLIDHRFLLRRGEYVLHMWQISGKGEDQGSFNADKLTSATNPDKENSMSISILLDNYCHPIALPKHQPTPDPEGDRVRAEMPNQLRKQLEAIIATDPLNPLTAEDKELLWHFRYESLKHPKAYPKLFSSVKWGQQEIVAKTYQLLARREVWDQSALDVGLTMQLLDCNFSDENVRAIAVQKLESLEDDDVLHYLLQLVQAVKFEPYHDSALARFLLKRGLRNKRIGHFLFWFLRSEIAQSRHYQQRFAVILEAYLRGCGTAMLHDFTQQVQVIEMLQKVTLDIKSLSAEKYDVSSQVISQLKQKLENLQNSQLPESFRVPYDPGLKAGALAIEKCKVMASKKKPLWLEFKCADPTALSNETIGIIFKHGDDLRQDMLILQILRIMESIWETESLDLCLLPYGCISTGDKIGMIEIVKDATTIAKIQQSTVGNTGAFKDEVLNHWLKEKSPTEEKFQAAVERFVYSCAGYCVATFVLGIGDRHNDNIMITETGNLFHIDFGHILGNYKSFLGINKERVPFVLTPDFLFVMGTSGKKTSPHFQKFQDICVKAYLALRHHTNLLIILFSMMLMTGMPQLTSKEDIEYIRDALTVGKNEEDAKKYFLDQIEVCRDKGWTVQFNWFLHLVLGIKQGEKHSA
measurementDescription: In vitro inhibition of PI3Kγ
Format: biochemical
conditionDetails: Table 14; read-out: IC50 (nM) PI3Kγ
Sorting guide: entries reporting IC50 beneath 60 nM go in the y pile, the rest go in the n pile.

- compound: "O=C(NOCCOCCOCCOCCNc1nc(N2CCOCC2)nc(-n2c(C(F)F)nc3ccccc32)n1)c1ccc(F)c(F)c1Nc1ccc(F)cc1F [ST-6-02]"
  measuredOn: "PI3Kγ (Homo sapiens, UniProt P48736)"
  groupLabel: "n"
- compound: "NOCCOCCOCCOCCNc1nc(N2CCOCC2)nc(-n2c(C(F)F)nc3ccccc32)n1 [ST-5-50]"
  measuredOn: "PI3Kγ (Homo sapiens, UniProt P48736)"
  groupLabel: "n"
- compound: "OCCN(CCO)c1nc(N2CCOCC2)nc(-n2c(C(F)F)nc3ccccc32)n1 [ST-5-32]"
  measuredOn: "PI3Kγ (Homo sapiens, UniProt P48736)"
  groupLabel: "y"
- compound: "CN(C)CCN(CCO)c1nc(N2CCOCC2)nc(-n2c(C(F)F)nc3ccccc32)n1 [ST-5-44]"
  measuredOn: "PI3Kγ (Homo sapiens, UniProt P48736)"
  groupLabel: "n"
- compound: "CC(=O)N(C)CCNc1nc(N2CCOCC2)nc(-n2c(C(F)F)nc3ccccc32)n1 [ST-5-31]"
  measuredOn: "PI3Kγ (Homo sapiens, UniProt P48736)"
  groupLabel: "y"
- compound: "O=C(NOCCOCCOCCOCCN(CCO)c1nc(N2CCOCC2)nc(-n2c(C(F)F)nc3ccccc32)n1)c1ccc(F)c(F)c1Nc1ccc(I)cc1F [ST-5-47]"
  measuredOn: "PI3Kγ (Homo sapiens, UniProt P48736)"
  groupLabel: "n"
- compound: "COCCN(CCO)c1nc(N2CCOCC2)nc(-n2c(C(F)F)nc3ccccc32)n1 [ST-6-01]"
  measuredOn: "PI3Kγ (Homo sapiens, UniProt P48736)"
  groupLabel: "y"

Regarding NOCCOCCOCCOCCN(CCO)c1nc(N2CCOCC2)nc(-n2c(C(F)F)nc3ccccc32)n1 [ST-5-46] , kindly confirm whether its IC50 is beneath 60 nM.
n
